- Test system: L1210 leukemia ip in BDF1 mice, survival T/C
- test_protocol: NCI In Vivo Anticancer Drug Screen. Data for tumor model L1210 Leukemia (intraperitoneal) in B6D2F1 (BDF1) mice
- protocol_conditions: endpoint: mean survival time; dose: 6.25 mg/kg/injection; schedule: Q01DX009 (ip); vehicle: saline with Tween-80; higher = longer survival
Inconclusive results and toxic doses are left out.
The following compounds are shown together with reported T/C values.

Consider the worked cases shown below.
- CCN(CC)c1ccc(N)cc1: 112 % of control
- C1=Cc2ccccc2/C1=C/c1cccc(/C=C2\C=Cc3ccccc32)c1: 101 % of control

Input line: Reported T/C, compound `O=C(O)c1cnc(Cl)nc1Nc1ccccc1I` : ____
Output line: 93 % of control

Input line: Reported T/C, compound `O=C(O)CCC(=O)c1ccc2c(c1)CCCC2` : ____
Output line: 92 % of control

Input line: Reported T/C, compound CC1(C)C2CCC1(CS(=O)(=O)O)C(=O)C2.[Ag] (configuration not stated) : ____
Output line: 87 % of control

Input line: Reported T/C, compound `CCCCCCCCCCCCSC1=C(Cl)C(=O)C(OC)=C(OC)C1=O` : ____
Output line: 93 % of control

Input line: Reported T/C, compound `O=C1NC2CCC(NC(=O)N1c1ccccc1)C1=C2C1` : ____
Output line: 90 % of control

* * *

The following compounds are shown together with reported T/C values.
- Tested on: L1210 leukemia ip in BDF1 mice, survival T/C
- test_protocol: NCI In Vivo Anticancer Drug Screen. Data for tumor model L1210 Leukemia (intraperitoneal) in B6D2F1 (BDF1) mice
- protocol_conditions: endpoint: mean survival time; dose: 400.0 mg/kg/injection; schedule: Q01DX001 (ip); vehicle: Klucel (hydroxypropylcellulose) (HPC); higher = longer survival
Inconclusive results and toxic doses are left out.

* CCCCCCCC/C=C\CCCCCCCC(=O)OCCCCCCCC | 92 % of control
* NC(=O)c1cc(Cl)cc(Cl)c1N | 111 % of control
* CC(C)C(C)/C=C\C(C)C1CCC2=C3CCC4CC(O)CCC4(C)C3CCC21C (configuration not stated) | 93 % of control
* Cc1ccc(S(=O)(=O)N(C)c2cc(Cl)c(I)cc2Cl)cc1 | 94 % of control
* CCOC(=O)c1c(-c2ccccc2)cn2c1OC(C)CC2(C)C (configuration not stated) | 93 % of control
* OC(c1ccccc1)C1(N2CCCCC2)CCCCC1 (configuration not stated) | 96 % of control

Input line: Reported T/C, compound `O=C(O)c1cc2ccccc2oc1=O` : ____
Output line: 98 % of control

Input line: Reported T/C, compound COc1ccc(OC2CCCCC2OS(C)(=O)=O)cc1 (configuration not stated) : ____
Output line: 108 % of control

* * *

- Test system: L1210 leukemia ip in BDF1 mice, survival T/C
- test_protocol: NCI In Vivo Anticancer Drug Screen. Data for tumor model L1210 Leukemia (intraperitoneal) in B6D2F1 (BDF1) mice
- protocol_conditions: endpoint: mean survival time; dose: 200.0 mg/kg/injection; schedule: Q01DX009 (ip); vehicle: Klucel (hydroxypropylcellulose) (HPC); higher = longer survival
Inconclusive results and toxic doses are left out.
reported_endpoint: T/C

Consider the worked cases shown below.
• O=C1c2nc3ccccc3nc2C(=O)N1O = 100 % of control
• CC(C)c1ccc(/C=C2\N=C(c3ccc([N+](=O)[O-])cc3)OC2=O)cc1 = 100 % of control

Proceed to the following item.
Input line: Query T/C on L1210 leukemia ip in BDF1 mice, survival T/C for `C/C=C(/Cl)c1c(C)cc(C)c(CC(=O)O)c1C`
Output line: 114 % of control
